STUDY TARGET: T1, TerR35-138 (Aspergillus terreus SBUG844, UniProt Q0D1P5 35-138)
T1 sequence: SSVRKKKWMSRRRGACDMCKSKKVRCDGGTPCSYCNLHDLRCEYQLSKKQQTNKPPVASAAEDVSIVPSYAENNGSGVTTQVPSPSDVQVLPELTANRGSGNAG
PROCEDURE TEXT: SPR; molar ratio 1.14; SPR (Biacore 2000, SA-coated CM3 chip): 10 mM HEPES pH 7.4, 150 mM NaCl, 0.005% P20, 5 mM beta-mercaptoethanol, 1 uM ZnCl2, 25 C; protein 12.5-6400 nM; 1:1 model with mass transport
CONDITION: protein: recombinant; (pET-29a; theoretical mass 11.35 kDa); label: biotin on one strand; 18 bp duplex
ASSAY ENDPOINT: Kd (nM)
Answers are plain numbers, in nM.

Endpoint output: Kd of BS4 (dsDNA) DNA 1: TCTTCGGCAATACGGACT DNA 2: AGTCCGTATTGCCGAAGA . Value? 65.6

// data source = paper PMC4360782
